Where these numbers come from: paper PMC5711809

molecular target: T1, human survivin (human, UniProt O15392 1-142, GREEN-MALEIMIDE (cysteine reactive) fluorescent label, in the MST experiments only); assay: peptide or protein array; PEPperCHIP microarray of overlapping printed peptides; incubated with survivin at 1, 10 and 100 µg/ml in incubation buffer; detected with 6X His Tag Antibody DyLight680; details: both partners purified
T1 construct: survivin, human, 16 kDa; The His tag is detected on the array by a 6X His Tag antibody; for the MST no cleavage of the tag is told; On the array the protein was unlabelled, in the MST labelled on cysteine; source: E. coli BL21(DE3) star, purified (Ni2+ chelation chromatography, gel filtration)
T1 sequence (O15392 whole entry): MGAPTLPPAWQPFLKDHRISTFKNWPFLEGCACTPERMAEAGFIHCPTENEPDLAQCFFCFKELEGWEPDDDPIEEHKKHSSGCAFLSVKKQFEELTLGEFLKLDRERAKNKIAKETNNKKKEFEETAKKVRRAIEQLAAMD
observed_property: binding result

binder: RKANRRKSKRMSKYK (human Shugoshin-like 1 (hSgol1), 15-mer of the overlapping peptide array; source: laser-printed on the PEPperCHIP peptide microarray (PEPperPRINT)) [hSgol1 array peptide RKANRRKSKRMSKYK]
measured_result: binds

binder: ECQVKKVNKMTSKSK (human Shugoshin-like 2 (hSgol2), 15-mer of the overlapping peptide array; source: laser-printed on the PEPperCHIP peptide microarray (PEPperPRINT)) [hSgol2 array peptide ECQVKKVNKMTSKSK]
measured_result: binds

binder: KVNKMTSKSKKRKTS (human Shugoshin-like 2 (hSgol2), 15-mer of the overlapping peptide array; source: laser-printed on the PEPperCHIP peptide microarray (PEPperPRINT)) [hSgol2 array peptide KVNKMTSKSKKRKTS]
measured_result: binds

binder: KREEKRKANRRKSKR (human Shugoshin-like 1 (hSgol1), 15-mer of the overlapping peptide array; source: laser-printed on the PEPperCHIP peptide microarray (PEPperPRINT)) [hSgol1 array peptide KREEKRKANRRKSKR]
measured_result: binds
